# Measured On: Link_TSG6 (Homo sapiens)
# Construct: made in house
# Sequence (P98066 36-129 limits assumed): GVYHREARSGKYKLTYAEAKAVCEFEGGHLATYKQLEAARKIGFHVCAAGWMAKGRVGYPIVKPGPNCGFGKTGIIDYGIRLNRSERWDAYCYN
# Method Summary: ITC of HA oligosaccharides binding to Link_TSG6
# Condition Summary: Table 1; ITC, 25 °C, 5 mM MES pH 6.0; mean ± SEM
Measure Name: ΔG (kcal/mol)
Dear colleague, please return just the value in kcal/mol, with no unit written.

**Q:** Return ΔG (reported value) for this compound: CC(=O)N[C@H]1[C@H](O[C@H]2[C@H](O)[C@@H](O)[C@H](O[C@H]3[C@H](O)[C@@H](CO)O[C@@H](O[C@H]4[C@H](O)[C@@H](O)[C@H](O[C@H]5[C@H](O)[C@@H](CO)OC(O)[C@@H]5NC(C)=O)O[C@@H]4C(=O)O)[C@@H]3NC(C)=O)O[C@@H]2C(=O)O)O[C@H](CO)[C@@H](O)[C@@H]1O[C@@H]1O[C@H](C(=O)O)[C@@H](O)[C@H](O)[C@H]1O (stereo partly shown) [HA6^AN, reference compound]
**A:** -8.13

###

# N per record follows
# Measured On: Link_TSG6 (Homo sapiens)
# Construct: made in house
# Method Summary: ITC of HA oligosaccharides binding to Link_TSG6
# Condition Summary: Table 1; ITC, 25 °C, 5 mM MES pH 6.0; 0.029 mM Link_TSG6, 0.29 mM oligosaccharide; mean ± SEM, four titrations
# Description: ITC experiments were performed using a MicroCal PEAQ-ITC instrument (Malvern Instruments). Oligosaccharide stock solutions were prepared at 0.29 mM (in 5 mM MES, pH 6.0) and injected (18 × 2 μl with 120 s spacing between injections) into the cell containing ∼200 μl Link_TSG6 (0.029 mM) in matched buffer at 25 °C. […] Each oligosaccharide was analyzed in four independently performed ITC experiments.
The answer should be written as a number, with no unit following it.

The following compounds have reported results that may help.
[
  {
    "Compound": "CC(=O)N[C@H]1[C@H](O[C@H]2[C@H](O)[C@@H](O)[C@H](O[C@H]3[C@H](O)[C@@H](CO)O[C@@H](O[C@H]4[C@H](O)[C@@H](O)[C@H](O[C@H]5[C@H](O)[C@@H](CO)O[C@@H](O[C@H]6[C@H](O)[C@@H](O)[C@H](O[C@@H]([C@H](O)[C@H](O)CO)[C@H](CNc7ccc(C(=O)O)cc7)NC(C)=O)O[C@@H]6C(=O)O)[C@@H]5NC(C)=O)O[C@@H]4C(=O)O)[C@@H]3NC(C)=O)O[C@@H]2C(=O)O)O[C@H](CO)[C@@H](O)[C@@H]1O[C@@H]1O[C@H](C(=O)O)[C@@H](O)[C@H](O)[C@H]1O [HA8-4AA]",
    "Measured On": "Link_TSG6 (Homo sapiens)",
    "N": 0.86
  },
  {
    "Compound": "CC(=O)N[C@H]1[C@H](O[C@H]2[C@H](O)[C@@H](O)[C@H](O[C@H]3[C@H](O)[C@@H](CO)O[C@@H](O[C@H]4[C@H](O)[C@@H](O)[C@H](O[C@@H]([C@H](O)[C@H](O)CO)[C@H](CNc5cccc(C(=O)O)c5)NC(C)=O)O[C@@H]4C(=O)O)[C@@H]3NC(C)=O)O[C@@H]2C(=O)O)O[C@H](CO)[C@@H](O)[C@@H]1O[C@@H]1O[C@H](C(=O)O)[C@@H](O)[C@H](O)[C@H]1O [HA6-3AA]",
    "Measured On": "Link_TSG6 (Homo sapiens)",
    "N": 1.05
  },
  {
    "Compound": "CC(=O)N[C@H]1[C@H](O[C@H]2[C@H](O)[C@@H](O)[C@H](O[C@H]3[C@H](O)[C@@H](CO)O[C@@H](O[C@H]4[C@H](O)[C@@H](O)[C@H](O[C@H]5[C@H](O)[C@@H](CO)OC(O)[C@@H]5NC(C)=O)O[C@@H]4C(=O)O)[C@@H]3NC(C)=O)O[C@@H]2C(=O)O)O[C@H](CO)[C@@H](O)[C@@H]1O[C@@H]1O[C@H](C(=O)O)[C@@H](O)[C@H](O)[C@H]1O (some centres unmarked) [HA6^AN, reference compound]",
    "Measured On": "Link_TSG6 (Homo sapiens)",
    "N": 1.04
  },
  {
    "Compound": "CC(=O)N[C@H]1[C@H](O[C@H]2[C@H](O)[C@@H](O)[C@H](O[C@H]3[C@H](O)[C@@H](CO)O[C@@H](O[C@H]4[C@H](O)[C@@H](O)[C@H](O[C@H]5[C@H](O)[C@@H](CO)O[C@@H](O[C@H]6[C@H](O)[C@@H](O)[C@H](O[C@H]7[C@H](O)[C@@H](CO)OC(O)[C@@H]7NC(C)=O)O[C@@H]6C(=O)O)[C@@H]5NC(C)=O)O[C@@H]4C(=O)O)[C@@H]3NC(C)=O)O[C@@H]2C(=O)O)O[C@H](CO)[C@@H](O)[C@@H]1O[C@@H]1O[C@H](C(=O)O)[C@@H](O)[C@H](O)[C@H]1O (some centres unmarked) [HA8^AN, reference compound]",
    "Measured On": "Link_TSG6 (Homo sapiens)",
    "N": 0.98
  }
]

Field: next compound
**Q:** Provide the reported N (system: Link_TSG6 (Homo sapiens)) for CC(=O)N[C@H]1[C@H](O[C@H]2[C@H](O)[C@@H](O)[C@H](O[C@H]3[C@H](O)[C@@H](CO)O[C@@H](O[C@H]4[C@H](O)[C@@H](O)[C@H](O[C@H]5[C@H](O)[C@@H](CO)O[C@@H](O[C@H]6[C@H](O)[C@@H](O)[C@H](O[C@@H]([C@H](O)[C@H](O)CO)[C@H](CNc7cccc(C(=O)O)c7)NC(C)=O)O[C@@H]6C(=O)O)[C@@H]5NC(C)=O)O[C@@H]4C(=O)O)[C@@H]3NC(C)=O)O[C@@H]2C(=O)O)O[C@H](CO)[C@@H](O)[C@@H]1O[C@@H]1O[C@H](C(=O)O)[C@@H](O)[C@H](O)[C@H]1O [HA8-3AA]
**A:** 1.05

###

Reported pKd by item:
# Measured On: hisCD44_HABD^20–169 (Homo sapiens)
# Construct: A novel construct consisting of residues 20 to 169 of human CD44 and an N-terminal six-histidine tag; made in house
# Sequence (P16070 20-169): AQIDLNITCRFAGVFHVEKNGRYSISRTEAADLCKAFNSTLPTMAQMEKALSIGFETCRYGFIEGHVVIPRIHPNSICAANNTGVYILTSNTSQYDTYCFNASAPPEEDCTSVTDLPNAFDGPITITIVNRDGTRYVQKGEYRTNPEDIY
# Method Summary: MST of HA oligosaccharides binding to hisCD44_HABD^20–169
# Condition Summary: Table 5; MST, 10 mM Hepes pH 7.5, 150 mM NaCl, 0.05% Tween-20, 25 °C; mean ± SD, three titrations; read-out: KD
// field semantics: pKd = negative decimal log of concentration (mol/L)

[
  {
    "Smiles String": "CC(=O)N[C@H]1[C@H](O[C@H]2[C@H](O)[C@@H](O)[C@H](O[C@H]3[C@H](O)[C@@H](CO)O[C@@H](O[C@H]4[C@H](O)[C@@H](O)[C@H](O[C@@H]([C@H](O)[C@H](O)CO)[C@H](CNc5ccc6c(c5)CCC6)NC(C)=O)O[C@@H]4C(=O)O)[C@@H]3NC(C)=O)O[C@@H]2C(=O)O)O[C@H](CO)[C@@H](O)[C@@H]1O[C@@H]1O[C@H](C(=O)O)[C@@H](O)[C@H](O)[C@H]1O",
    "pKd": 4.11
  }
]

Now take the following molecule into account.
**Q:** State its pKd for this molecule: "CC(=O)N[C@H]1[C@H](O[C@H]2[C@H](O)[C@@H](O)[C@H](O[C@H]3[C@H](O)[C@@H](CO)O[C@@H](O[C@H]4[C@H](O)[C@@H](O)[C@H](O[C@H]5[C@H](O)[C@@H](CO)O[C@@H](O[C@H]6[C@H](O)[C@@H](O)[C@H](O[C@@H]([C@H](O)[C@H](O)CO)[C@H](CNc7cccc8c7CCC8)NC(C)=O)O[C@@H]6C(=O)O)[C@@H]5NC(C)=O)O[C@@H]4C(=O)O)[C@@H]3NC(C)=O)O[C@@H]2C(=O)O)O[C@H](CO)[C@@H](O)[C@@H]1O[C@@H]1O[C@H](C(=O)O)[C@@H](O)[C@H](O)[C@H]1O"
**A:** 3.86

###

# Measured On: Link_TSG6 (Homo sapiens)
# Construct: made in house
# Method Summary: ITC of HA oligosaccharides binding to Link_TSG6
# Condition Summary: Table 6; relative to unmodified oligosaccharide of the same length, by ITC
Collected % Binding affinity Link_TSG6 values appear next to each entry.
Report only the number, with the unit % understood.

[
  {
    "Smiles String": "COc1ccc(C(=O)O)c(NC[C@H](NC(C)=O)[C@@H](O[C@@H]2O[C@H](C(=O)O)[C@@H](O[C@@H]3O[C@H](CO)[C@@H](O)[C@H](O[C@@H]4O[C@H](C(=O)O)[C@@H](O[C@@H]5O[C@H](CO)[C@@H](O)[C@H](O[C@@H]6O[C@H](C(=O)O)[C@@H](O[C@@H]7O[C@H](CO)[C@@H](O)[C@H](O[C@@H]8O[C@H](C(=O)O)[C@@H](O)[C@H](O)[C@H]8O)[C@H]7NC(C)=O)[C@H](O)[C@H]6O)[C@H]5NC(C)=O)[C@H](O)[C@H]4O)[C@H]3NC(C)=O)[C@H](O)[C@H]2O)[C@H](O)[C@H](O)CO)c1",
    "% Binding affinity Link_TSG6 [%]": 21
  },
  {
    "Smiles String": "CC(=O)N[C@H]1[C@H](O[C@H]2[C@H](O)[C@@H](O)[C@H](O[C@H]3[C@H](O)[C@@H](CO)O[C@@H](O[C@H]4[C@H](O)[C@@H](O)[C@H](O[C@H]5[C@H](O)[C@@H](CO)O[C@@H](O[C@H]6[C@H](O)[C@@H](O)[C@H](O[C@@H]([C@H](O)[C@H](O)CO)[C@H](CNc7ccc8c(c7)CCC8)NC(C)=O)O[C@@H]6C(=O)O)[C@@H]5NC(C)=O)O[C@@H]4C(=O)O)[C@@H]3NC(C)=O)O[C@@H]2C(=O)O)O[C@H](CO)[C@@H](O)[C@@H]1O[C@@H]1O[C@H](C(=O)O)[C@@H](O)[C@H](O)[C@H]1O",
    "% Binding affinity Link_TSG6 [%]": 207
  }
]

**Q:** Provide only the value of recorded % Binding affinity Link_TSG6 for "CC(=O)N[C@H]1[C@H](O[C@H]2[C@H](O)[C@@H](O)[C@H](O[C@H]3[C@H](O)[C@@H](CO)O[C@@H](O[C@H]4[C@H](O)[C@@H](O)[C@H](O[C@@H]([C@H](O)[C@H](O)CO)[C@H](CNc5ccc6c(c5)CCC6)NC(C)=O)O[C@@H]4C(=O)O)[C@@H]3NC(C)=O)O[C@@H]2C(=O)O)O[C@H](CO)[C@@H](O)[C@@H]1O[C@@H]1O[C@H](C(=O)O)[C@@H](O)[C@H](O)[C@H]1O"
**A:** 162
